Overview of reported CB2 receptor binding percent inhibition across a group of compounds:
# TARGET OF ASSAY: CB2 receptor (Homo sapiens, UniProt P34972)
# Construct: expressed in transfected cells
# Sequence (P34972 whole entry): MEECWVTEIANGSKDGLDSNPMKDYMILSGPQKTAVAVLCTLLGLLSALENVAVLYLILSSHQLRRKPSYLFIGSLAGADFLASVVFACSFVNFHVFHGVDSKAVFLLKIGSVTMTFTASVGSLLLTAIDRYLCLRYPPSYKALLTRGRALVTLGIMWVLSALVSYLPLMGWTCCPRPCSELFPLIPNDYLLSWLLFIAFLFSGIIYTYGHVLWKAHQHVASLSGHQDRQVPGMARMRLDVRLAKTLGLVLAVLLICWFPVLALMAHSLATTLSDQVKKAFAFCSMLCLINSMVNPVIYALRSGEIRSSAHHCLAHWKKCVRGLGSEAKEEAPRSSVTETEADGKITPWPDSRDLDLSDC
# ASSAY INFO: Binding assay for CB2 agonists or inverse agonists (SK-N-MC membranes, [3H]-CP-55,940)
# MEASUREMENT PARAMETERS: test concentration not stated
METRIC NAME: CB2 receptor binding percent inhibition (%)

| COMPOUND | TARGET OF ASSAY | METRIC NAME | RECORDED NUMBER |
| --- | --- | --- | --- |
| COC(=O)[C@@H](Cc1ccc(F)cc1)NC(=O)c1nn(-c2ccc(Cl)cc2Cl)c2c1CCCCC2Cc1cccc(Cl)c1 (stereo partly drawn) | CB2 receptor (Homo sapiens, UniProt P34972) | CB2 receptor binding percent inhibition | 57 |
| CCOC(=O)[C@@H]1C2CCC(C2)[C@@H]1NC(=O)c1nn(-c2ccc(F)cc2F)c2c1CCCCC2Cc1cccc(F)c1 (stereo partly drawn) | CB2 receptor (Homo sapiens, UniProt P34972) | CB2 receptor binding percent inhibition | 65 |
| COC(=O)[C@@H](Cc1ccc(O)cc1)NC(=O)c1nn(-c2ccc(Cl)cc2Cl)c2c1CCCCC2Cc1cccc(F)c1 (stereo partly drawn) | CB2 receptor (Homo sapiens, UniProt P34972) | CB2 receptor binding percent inhibition | 23 |
| O=C(N[C@@H]1c2ccccc2C[C@@H]1O)c1nn(-c2ccc(Cl)cc2Cl)c2c1CCCCC2Cc1cccc(Cl)c1 (single isomer, unassigned) [Cpd 112] | CB2 receptor (Homo sapiens, UniProt P34972) | CB2 receptor binding percent inhibition | 16 |
| O=C(NN1CCOCC1)c1nn(C2CCCCC2)c2c1CCCCC2Cc1cccc(F)c1 (stereo not drawn) | CB2 receptor (Homo sapiens, UniProt P34972) | CB2 receptor binding percent inhibition | 2 |
| COC(=O)[C@@H](Cc1ccc(F)cc1)NC(=O)c1nn(-c2ccc(Cl)cc2Cl)c2c1CCCC[C@@H]2Cc1cccc(F)c1 | CB2 receptor (Homo sapiens, UniProt P34972) | CB2 receptor binding percent inhibition | 28 |
| O=C(NCc1ccccc1)c1nn(C2CCCCC2)c2c1CCCCC2Cc1ccc(F)cc1 (stereo not drawn) | CB2 receptor (Homo sapiens, UniProt P34972) | CB2 receptor binding percent inhibition | 71 |
| C[C@H](NC(=O)c1nn(C2CCCCC2)c2c1CCCCC2Cc1cccc(Cl)c1)c1ccccc1 (stereo partly drawn) | CB2 receptor (Homo sapiens, UniProt P34972) | CB2 receptor binding percent inhibition | 12 |
| O=C(NC1CCC1)c1nn(C2CCCCC2)c2c1CCCCC2Cc1cccc(Cl)c1 (stereo not drawn) | CB2 receptor (Homo sapiens, UniProt P34972) | CB2 receptor binding percent inhibition | 0 |
| C[C@H](NS(=O)(=O)/C=C/c1nn(-c2ccc(F)cc2F)c2c1CCCCC2Cc1cccc(F)c1)C1CCCCC1 (stereo partly drawn) | CB2 receptor (Homo sapiens, UniProt P34972) | CB2 receptor binding percent inhibition | 1 |
| O=C(NC1CC1)c1nn(C2CCCCC2)c2c1CCCCC2Cc1cccc(F)c1 (stereo not drawn) | CB2 receptor (Homo sapiens, UniProt P34972) | CB2 receptor binding percent inhibition | 9 |
| O=C(N[C@@H]1c2ccccc2C[C@@H]1O)c1nn(C2CCCCC2)c2c1CCCC[C@@H]2Cc1ccc(F)cc1 | CB2 receptor (Homo sapiens, UniProt P34972) | CB2 receptor binding percent inhibition | 16 |
| O=C(NN1CCCCC1)c1nn(-c2ccc(Cl)cc2Cl)c2c1CCCCC2Cc1cccc(Cl)c1 (stereo not drawn) | CB2 receptor (Homo sapiens, UniProt P34972) | CB2 receptor binding percent inhibition | 11 |
| CCOC(=O)[C@@H]1C2CCC(C2)[C@@H]1NC(=O)c1nn(C2CCCCC2)c2c1CCCCC2Cc1cccc(F)c1 (stereo partly drawn) | CB2 receptor (Homo sapiens, UniProt P34972) | CB2 receptor binding percent inhibition | 82 |
| CC(C)(C)OC(=O)N1CCC(NC(=O)c2nn(C3CCCCC3)c3c2CCCCC3Cc2cccc(F)c2)CC1 (stereo not drawn) | CB2 receptor (Homo sapiens, UniProt P34972) | CB2 receptor binding percent inhibition | 0 |
